Attribution: the OPERA property sets (Mansouri et al. 2018)

condition.notes: 25.0 °C
experimental.endpoint: log10 OH rate constant (cm³/molecule/s)

[[record]]
molecule = "C=CC=CC=C"
reading = -10.3

[[record]]
molecule = "CCCCCCCC"
reading = -11.1

[[record]]
molecule = "O=CCCCC=O"
reading = -10.6

[[record]]
molecule = "CCCCS"
reading = -10.3

[[record]]
molecule = "Oc1cccc(Cl)c1Cl"
reading = -11.8

[[record]]
molecule = "CC(C)(C)c1ccccc1"
reading = -11.3

[[record]]
molecule = "C/C=N/O"
reading = -11.7

[[record]]
molecule = "CC(C)(C)C(C)(C)C"
reading = -12

[[record]]
molecule = "c1ccc2occc2c1"
reading = -10.4

[[record]]
molecule = "CCCCCCC"
reading = -11.1

[[record]]
molecule = "C=CC(C)=O"
reading = -10.7

[[record]]
molecule = "c1ccccc1"
reading = -11.9

[[record]]
molecule = "Nc1ccc(Cl)cc1"
reading = -10.4

[[record]]
molecule = "c1ccc2c(c1)CCO2"
reading = -10.4

[[record]]
molecule = "Cc1cccc(O)c1"
reading = -10.2

[[record]]
molecule = "COC(C)CCO (centres undefined)"
reading = -10.6

[[record]]
molecule = "CCCCOC(=O)CCC"
reading = -11

[[record]]
molecule = "C=CC=C"
reading = -10.2

[[record]]
molecule = "C1=CCCCC1"
reading = -10.2

[[record]]
molecule = "CC=O"
reading = -10.8

[[record]]
molecule = "C=C/C=C\\C"
reading = -9.99

[[record]]
molecule = "Cc1ccc(N)cc1N"
reading = -9.72

[[record]]
molecule = "CN(C)c1ccccc1"
reading = -9.83

[[record]]
molecule = "C#CCC"
reading = -11.1

[[record]]
molecule = "COCC(C)=O"
reading = -11.2

[[record]]
molecule = "CCCCCCC(C)C"
reading = -11

[[record]]
molecule = "CC1CCCC(C)(C)C1 (centres undefined)"
reading = -11.1

[[record]]
molecule = "CS(C)=O"
reading = -10.2

[[record]]
molecule = "Nc1ccc(Cc2ccc(N)cc2)cc1"
reading = -10.5

[[record]]
molecule = "FCF"
reading = -14

[[record]]
molecule = "CC(C)=C(C)C"
reading = -9.96

[[record]]
molecule = "CCCC(C)(C)C"
reading = -11.5

[[record]]
molecule = "c1ccc2c(c1)Cc1ccccc1-2"
reading = -10.9

[[record]]
molecule = "CC(C)C=O"
reading = -10.6

[[record]]
molecule = "C=CF"
reading = -11.3

[[record]]
molecule = "CC(C)CC(C)(C)C"
reading = -11.4

[[record]]
molecule = "ClC(Cl)=C(Cl)Cl"
reading = -12.8

[[record]]
molecule = "OCC(Cl)(Cl)Cl"
reading = -12.6

[[record]]
molecule = "CCC(=O)O"
reading = -11.9

[[record]]
molecule = "COCCOCCOC"
reading = -10.8

[[record]]
molecule = "ClCc1ccccc1"
reading = -11.5

[[record]]
molecule = "C=CC=C(C)C"
reading = -9.88

[[record]]
molecule = "Oc1ccccc1"
reading = -10.6

[[record]]
molecule = "c1cc[nH]c1"
reading = -9.96

